# Tested on: wild type NL4-3 virus (HIV-1) in HeLa-p4 cells
# PROCEDURE DETAILS: HeLa-p4 single-cycle HIV-1 infectivity, beta-galactosidase CPRG test
# Format: cell-based
# APPLIED CONDITIONS: Human immunodeficiency virus 1, NL43, HeLaP4; 100 μM; 48 hours after infection; control = NL4-3 virus alone; read-out: Hela-p4 CPRG 100 μM
READOUT LABEL: activity at 100 µM (%)
Give bare numbers, in %.

Would you please look over these solved cases?
COMPOUND | READOUT NUMBER
Cc1ccc(CCN2C[C@H](N)C[C@H](N)C2)cc1 [ECO01-029-C] | 109
N[C@@H]1C[C@H](N)CN(c2cccc(C(=O)Nc3ccccc3)c2)C1 [ECO02-003-C] | 118
COc1ccc(CCN2C[C@H](N)C[C@H](N)C2)cc1OC [AB-77] | 184
CC(C)N1C[C@H](N)C[C@H](N)C1 [AB542, 1-isopropylpiperidine-3,5-diamine] | 106
COc1cccc(CCN2C[C@H](NC(=O)OC(C)(C)C)C[C@H](NC(=O)OC(C)(C)C)C2)c1 [ECO03-03-C] | 341

Hey, quick one: what's activity at 100 µM for each of these?
1. N[C@@H]1C[C@H](N)CN(CCCCc2ccccc2)C1 [ECO02-026-C, 1-(4-phenylbutyl)piperidine-3,5-diamine]
2. COc1ccc(CC(=O)N2C[C@H](N)C[C@H](N)C2)cc1OC [AB287-F1]
3. COc1ccc(N2C[C@H](N)C[C@H](N)C2)cc1 [ECO01-056-C]
4. N[C@@H]1C[C@H](N)CN(c2ccc3[nH]ccc3c2)C1 [AB-86]
5. COc1cccc(CCN2C[C@H](NS(C)(=O)=O)C[C@H](NS(C)(=O)=O)C2)c1 [ECO02-073-B2]
6. COc1ccc(CN2C[C@H](N)C[C@H](N)C2)cc1OC [PDA25]

1: 31; 2: 182; 3: 122; 4: 66; 5: 127; 6: 184

---

# Tested on: wild type NL4-3 virus (HIV-1) in HeLa-p4 cells
# PROCEDURE DETAILS: HeLa-p4 single-cycle HIV-1 infectivity, beta-galactosidase CPRG test
# Format: cell-based
# APPLIED CONDITIONS: Human immunodeficiency virus 1, NL43, HeLaP4; 100 μM; 48 hours after infection; control = NL4-3 virus alone; read-out: Hela-p4 CPRG 100 μM
Structures can show the parent of a compound that is named as a salt.
Threshold 200%. activity at 100 µM below it: 1 (yes). activity at 100 µM at it or above: 0 (no).

Consider the worked cases shown below.
COMPOUND | CLASS ASSIGNMENT
N[C@@H]1CNC[C@H](N)C1 | 0 (no)
COc1ccc(CCN2C[C@H](N)C[C@H](N)C2)cc1 | 1 (yes)
N[C@@H]1C[C@H](N)CN(C23CC4CC(CC(C4)C2)C3)C1 | 1 (yes)
N[C@@H]1C[C@H](N)CN(c2ccc(NC(=O)c3ccccc3)c(O)c2)C1 | 0 (no)
N[C@@H]1C[C@H](N)CN(Cc2ccccc2)C1 [ECO02-063-C, trihydrochloride] | 1 (yes)
COc1cccc(CCN2C[C@@H](N)C[C@@H](NC(=O)OC(C)(C)C)C2)c1 | 0 (no)
N[C@@H]1C[C@H](N)CN(CCc2ccc(O)cc2)C1 | 1 (yes)
N[C@@H]1C[C@H](N)CN(CCc2ccccc2)C1 | 1 (yes)
COc1cc(N2C[C@H](N)C[C@H](N)C2)cc(OC)c1OC | 1 (yes)
N[C@@H]1C[C@H](N)CN(c2ccc(C(=O)N3CCCCCC3)cc2)C1 | 1 (yes)

Lab note: confirm whether the reported activity at 100 µM for this compound is below 200%, equality not counting. compound: `COc1ccc(CCN2C[C@H](N3C[C@H](N)C[C@H](N)C3)C[C@H](N3C[C@H](N)C[C@H](N)C3)C2)cc1OC`
1 (yes)

Please determine if N[C@H]1CC(OCc2cn(CC(=O)c3cc4ccc3CCc3ccc(cc3)CC4)nn2)[C@@H](N)C1 (some centres unmarked) is below 200% in terms of activity at 100 µM.
1 (yes)

Quick check: activity at 100 µM of `CC(C)(C)OC(=O)N[C@@H]1C[C@H](NC(=O)OC(C)(C)C)CN(Cc2ccco2)C1` under 200%?
1 (yes)

Item `COC(=O)[C@@H](Cc1ccccc1)N1C[C@H](N)C[C@H](N)C1` : activity at 100 µM beneath 200%, strictly?
1 (yes)

I wonder whether `COc1ccc(-c2ccc(N3C[C@H](N)C[C@H](N)C3)cc2)cc1` has activity at 100 µM below 200%. Can you tell?
1 (yes)

Report whether reported activity at 100 µM is lower than 200% (strictly) for `CN(C)c1ccc(CN2C[C@H](NC(=O)OC(C)(C)C)C[C@H](NC(=O)OC(C)(C)C)C2)cc1`
0 (no)

From: patent US20170183306A1
